Data origin: patent US8461124B2

Test system: complementary DNA
Test: Thermal denaturation (UV melting) of AON duplexes with complementary DNA
Type: binding
Details: relative to native AON 1/DNA duplex
measured-property: ΔTm* (Tm relative to DNA compliment) (°C)
Note: unit °C is implicit; provide only the numeric part.

Task item: What measured ΔTm* (Tm relative to DNA compliment) is associated with 3′-d(CTTCTTTTTT(5-carbo)ACTTC)-5′ (antisense CTTCTTTTTTACTTC; carbocyclic-LNA-T at position 10 from 3'-end, chemistry not fully specified) [AON 9, carbocyclic-LNA-T modified AON, position 10 from 3′-end] on complementary DNA?
Reply: −2.00

Task item: # repeat for 3′-d(CTT(5-carbo)CTTTTTTACTTC)-5′ (antisense CTTCTTTTTTACTTC; carbocyclic-LNA-T at position 3 from 3'-end, chemistry not fully specified) [AON 6, carbocyclic-LNA-T modified AON, position 3 from 3′-end]
Reply: 0.00

Task item: # repeat for 3′-d(CTTCTTTT(6-carbo)TTACTTC)-5′ [AON 12]
Reply: −5.0

Task item: # repeat for 3′-d(CTTCTT(6-carbo)TTTTACTTC)-5′ [AON 11]
Reply: −5.5

Task item: # repeat for 3′-d(CTTCTTTT(LNA)TTACTTC)-5′ (antisense CTTCTTTTTTACTTC; LNA-T at position 8 from 3'-end, chemistry not fully specified) [AON 4, LNA-T modified AON, position 8 from 3′-end]
Reply: 0.0
